Tested on: K-562 leukemia
Assay: NCI-60 one-dose screen, 48 h (100 = growth as untreated, 0 = no growth, -100 = all killed)
Details: 10 µM unless noted
About 83,000 compounds went through this panel and 20% of them were active in at least one assay; those are over-represented in the sample as a whole.
property_measured: growth (%)
Give bare numbers, in %.

Please review the following examples before continuing.
compound=O=C1/C(=C/c2ccccc2)CCC/C1=C\c1ccccc1 test_value=62
compound=CC1(O)CCCCCC1 test_value=85.3
compound=O=C(Nc1ccc(Cl)c(Cl)c1)OCc1ccco1 test_value=15.8
compound=O=[N+]([O-])c1ccc(C(Br)c2ccc([N+](=O)[O-])cc2)cc1 test_value=25.4

Record growth per entry; entries follow.
1. Oc1cc(Cl)ccc1Cc1ccc(Cl)cc1O
2. CC(C)(C)c1ccc(CCO)cc1
3. CCOc1ccc(C(CN2CCOCC2)C(C)=O)cc1OC (stereo not drawn)
4. O=C(c1ccccc1)N(CCCl)C(=O)N(CCCl)C(=O)c1ccccc1

stdout:
37.2
91.3
45.5
95.5

Record growth per entry; entries follow.
1. CCCCCCN(CCCCCC)CCCNc1nccc2ccccc12
2. CN(Cc1ccccc1)c1ccc(SC#N)cc1
3. Oc1ccc(Br)cc1Sc1cc(Br)ccc1O
4. O/N=C1\c2ccccc2-c2ccc(F)cc21
5. O=C1C=C(Cl)C(=O)c2ccccc21

stdout:
1. 0.764
2. 31.8
3. 49.2
4. 99.1
5. 24.2

###

System: NCI-H226 lung
Assay: NCI-60 one-dose screen, 48 h
Conditions: 10 µM unless noted
About 83,000 compounds went through this panel and 20% of them were active in at least one assay; those are over-represented in the sample as a whole. The source made the active and inactive calls. Rule for the calls: active = growth percent below 10; inactive = the rest.
The reply should name one outcome from Y for active, N for inactive

Completed entries (count: 6):
compound=CC/C(=C(/CC)c1ccc(O)cc1)c1ccc(O)cc1 discrete_label=N
compound=CC(C)(C)CC(C)(C)c1ccc(OCCOCCSC(=N)N)cc1 discrete_label=N
compound=CC(=O)c1ccc2c(c1)CCc1ccccc1-2 discrete_label=N
compound="CCCCCCCCCCCC[N+]1(CCCCCCCCCCCC)CCCC(C)C1 (stereo unspecified)" discrete_label=Y
compound="Oc1c(Cl)cc(Cl)cc1C=NCC1CCC(CN=Cc2cc(Cl)cc(Cl)c2O)CC1 (stereo unspecified)" discrete_label=N
compound=C[C@@]1(CO)[C@H](O)CC[C@@]2(C)[C@H]1CC[C@H]1C[C@@H]3C[C@@]12CC[C@@]3(O)COC(=O)CN discrete_label=N

Could you now look at the following compound, please?
stdin: # fetch the recorded call for O=C1Nc2ccc(Br)cc2C1=O here
stdout: N

###

I'd appreciate it if you could supply growth values for the items below.
Test system: MDA-MB-231 breast
Experiment: NCI-60 one-dose screen, 48 h (100 = growth as untreated, 0 = no growth, -100 = all killed)
Details: 10 µM unless noted
The panel holds about 83,000 compounds, 20% with a hit somewhere; the sample as a whole holds those more often.
Give bare numbers, in %.

molecule="CCOc1ccc(C(CN2CCOCC2)C(C)=O)cc1OC (configuration not stated)" test_system="MDA-MB-231 breast" readout_unit=% test_value=94.6
molecule=N#CC(=C1SCS1)[N+](=O)[O-] test_system="MDA-MB-231 breast" readout_unit=% test_value=16
molecule=COC(=O)Nc1nc2ccc(C3(c4ccc(F)cc4)OCCO3)cc2[nH]1 test_system="MDA-MB-231 breast" readout_unit=% test_value=30.3
molecule=CCOC(=O)c1[nH]c(C#N)c(C(=O)OCC)c1C test_system="MDA-MB-231 breast" readout_unit=% test_value=102
molecule=CCNc1nnnn1CC test_system="MDA-MB-231 breast" readout_unit=% test_value=103

Record growth per entry; entries follow.
1. Cc1cc2cccnc2c2ncccc12
2. Cc1ccc(Nc2ccc(O)c3c2C(=O)c2c(O)ccc(Nc4ccc(C)cc4)c2C3=O)cc1
3. CCCCC(CCc1ccc([N+](=O)[O-])cc1)(C(C)=O)C(=O)OCC (configuration not stated)
4. COc1ccc2c(c1OC)OCC(CN(C)C)C2=O (configuration not stated)

stdout:
1. 44.2
2. 110
3. 98.2
4. 96.7
